# Experiment: P. berghei load reduction in hepatocytes – cell-based, HepG2, luciferase luminescence, HepG2 viability, primary screen (AID 624349);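 also: 100% = mean of DMSO negative control wells on the same plate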
# Measurement parameters: P. berghei liver stage in HepG2, luciferase luminescence, concentration not given here
Activity calls are given as the source filed them. Rule as the data show it: active = parasite load remaining mostly below about 12% (no sharp cut-off); inactive = mostly above about 10%.
// allowed return values: true = active, false = inactive

Example cases with answers are listed next.
# Chemical string, Category
data = [
    ("CC[N+](C)(CC)CCC[n+]1c(-c2ccccc2)c2cc(N)ccc2c2ccc(N)cc21", "false"),
    ("CC(C)=CC[C@@H](O)C1=CC(=O)c2c(O)ccc(O)c2C1=O", "true"),
    ("CC[C@H](CO)Nc1nc(NCc2ccccc2)c2ncn(C(C)C)c2n1", "false"),
    ("O=C1NCCc2[nH]c(-c3ccncc3)cc21", "false"),
]

Please turn your attention to the following entry.
-- ask Hi, do you know how `O=C1NC(=O)c2cc(Nc3ccc(F)cc3)c(Nc3ccc(F)cc3)cc21` came out in this test?
-- reply false

====

# Experiment: viability loss in pontine glioma line – cell-based, JHH-DIPG-1, MIPE4.0, CellTiter-Glo, qHTS, dose response (AID 1347062);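 as to AC50: cells exposed to compound for two days before readout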
# Measurement parameters: JHH-DIPG-1 viability, CellTiter-Glo ATP luminescence
Inconclusive results are not listed. Active and inactive are the calls of the source. Cut-off not given; nearly all actives show AC50 up to about 27 µM.
Valid outcomes are listed here; reply with one: active, inactive

Example entries and their recorded answers appear below.
# Compound, Category
data = [
    ("C/C(=N\\NC(=S)N1CCC1)c1ccccn1", "active"),
    ("CC(C)n1cnc2c(NCCc3ccc(O)cc3)nc(-c3csc4ccccc34)nc21", "active"),
    ("COc1cc(=C2C=c3ccccc3=N2)[nH]/c1=C/c1[nH]c(C)cc1C", "active"),
    ("CN1CCc2c(c3ccccc3n2Cc2ccc(C(=O)NO)cc2)C1", "active"),
    ("CC(C)(Cc1ccc2ccccc2c1)NC[C@@H](O)COc1cccc(Cl)c1C#N", "inactive"),
    ("Cc1cnc(Nc2ccc(CN3CCOCC3)cc2)nc1Nc1cccc(S(=O)(=O)NC(C)(C)C)c1", "active"),
    ("CNC(=O)c1ccc2cc(C3(O)CCn4cncc43)ccc2c1 (centres undefined)", "inactive"),
    ("CCOC(=O)/C=C/[C@H](C[C@@H]1CCNC1=O)NC(=O)[C@@H](CC(=O)[C@@H](NC(=O)c1cc(C)on1)C(C)C)Cc1ccc(F)cc1", "inactive"),
]

-- ask Dear all, I need the recorded test outcome for `CC[C@H]1OC(=O)[C@H](C)C(=O)[C@H](C)[C@@H](O[C@H]2O[C@H](C)C[C@H](N(C)C)[C@H]2O)[C@](C)(OC)C[C@@H](C)C(=O)[C@H](C)[C@H]2N(CCCCn3cnc(-c4cccnc4)c3)C(=O)O[C@]12C` , thank you.
-- reply inactive

====

# Experiment: growth inhibition, MDA-MB-436, cell-based, BGB or cisplatin combos, synergistic combos for chromothripsis tumors (AID 1671458);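 also: cells exposed for 96 hours; 0% = vehicle DMSO and 100% = killing by high DMSO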
# Measurement parameters: MDA-MB-436 breast carcinoma growth inhibition, drug combinations; measured here: BGB combination; at 5 µM; stronger effect = higher value
Give inhibition for every item shown.
One number for each entry, in %.

# Chemical string, Unit spec, inhibition
rows = [
    ("Nc1ncnc2c1c(-c1cnc3[nH]ccc3c1)nn2C1CCCC1", "%", 42.9),
    ("COc1cc(C=O)c([N+](=O)[O-])cc1OC", "%", -6.36),
    ("CC(=O)Nc1ccc(C(=O)Nc2ccccc2N)cc1", "%", 12.4),
]

Batch of 5 molecules: report inhibition for each.
1. NC(=O)c1nc(F)c[nH]c1=O
2. Nc1nc(OCc2cc(Br)cs2)c2[nH]cnc2n1
3. Nc1ccccc1NC(=O)c1ccc(CNc2nccc(-c3cccnc3)n2)cc1
4. O=C(CCCCCCNC(=O)c1cnc(N(c2ccccc2)c2ccccc2Cl)nc1)NO
5. Cc1cn([C@@H]2O[C@H](CO)[C@@H](O)[C@@H]2F)c(=O)[nH]c1=O

-- reply
1: -9.17; 2: 3.71; 3: 64.6; 4: 16.3; 5: -19.5
